Mark fulfilled only for boiling point values smaller than 200 °C; exact matches and larger values are not fulfilled.

# example entries with known answers
In [3]: df
Out[3]:
                 compound  assigned_label
0  CCCCOC(=O)CCC(=O)OCCCC   not fulfilled
1         Oc1ccc(Cl)cc1Cl   not fulfilled
2          N#CCc1ccccc1Cl   not fulfilled

Ask: boiling point strictly < 200 °C for this compound? "CN1CCCc2ccccc21"
Result: not fulfilled

Ask: boiling point strictly < 200 °C for this compound? "CC(C)CN"
Result: fulfilled

Ask: boiling point strictly < 200 °C for this compound? "CCC(C)(C)c1ccc(O)cc1"
Result: not fulfilled

Ask: boiling point strictly < 200 °C for this compound? C=CC(C)C(C)O (centres undefined)
Result: fulfilled

---

Each entry below lists one item and its recorded boiling point value.
Could you give me the number in °C? Just the number is fine.

Before answering, review these 5 worked examples.
                     compound  scale_unit  test_value
0              CCOc1ccc(I)cc1          °C         250
1              Cc1cc(O)ccc1Cl          °C         235
2            O=C1CCc2ccccc2O1          °C         272
3  CC1(C)CON(Cc2ccccc2Cl)C1=O          °C         275
4               O=C(O)c1ccco1          °C         231

Next:
Just so you know, measured boiling point for "O=Cc1cccs1" came out at 197

---

We use 100 °C as the dividing line for boiling point: on or above the line is MET, below is NOT MET.

# example entries with known answers
>>> df
           smiles_record  assigned_label
0  C=C(C)c1ccc(C(C)C)cc1             MET
1                 FCCCCl         NOT MET
2              CC=C(C)CC         NOT MET
3   CC(C)COC(=O)c1ccccc1             MET
4                  CON=O         NOT MET
5            N#CC(F)(F)F         NOT MET
6         O=C(F)C(F)(F)F         NOT MET
7          C=Cc1ccccc1Br             MET
8             CCCCCCCCCF             MET
9              NN1CCCCC1             MET

Ask: I'd appreciate it if you could say whether "N#CCCCCC#N" has boiling point at least equal to 100 °C.
Result: MET

Ask: I'd appreciate it if you could say whether "CCCN1CCCCC1" has boiling point at least equal to 100 °C.
Result: MET

Ask: I'd appreciate it if you could say whether "CCOc1ccccc1" has boiling point at least equal to 100 °C.
Result: MET

---

property: ready biodegradability

In [3]: df
Out[3]:
                           smiles_record                property             test_value
0                          COc1ccc(O)cc1  ready biodegradability  readily biodegradable
1  COP(=S)(OC)Oc1ccc([N+](=O)[O-])c(C)c1  ready biodegradability  readily biodegradable
2                    ClC(Cl)(Cl)c1ccccc1  ready biodegradability  readily biodegradable

---

property: melting point (°C)
Could you give me the number in °C? Just the number is fine.

Before answering, review these 2 worked examples.
                                   molecule  test_value
0                     ClC(c1ccccc1)c1ccccc1          16
1  N#CC(CCN1CCC(C(N)=O)(N2CCCCC2)CC1)(c1ccccc1)c1ccccc1         150

Just so you know, measured melting point for "Fc1nc(F)nc(F)n1" came out at -38

Just so you know, measured melting point for "CCCSCC" came out at -117

Just so you know, measured melting point for "Clc1ccccc1C=C1c2ccccc2-c2ccccc21" came out at 69.5

---

property: boiling point (°C)
Could you give me the number in °C? Just the number is fine.

>>> df
                                   compound       property  test_value
0  CC(=O)O[C@@H]1CC2CCC1(C)C2(C)C (stereo not given in full)  boiling point         221

Just so you know, measured boiling point for "CCOC(OCC)C(Cl)Cl" came out at 184

Just so you know, measured boiling point for "CCC(CC)CC" came out at 93.5

Just so you know, measured boiling point for "CCOC(=O)CC(=O)C(C)C" came out at 173

Just so you know, measured boiling point for "Cc1ccccc1C" came out at 144

Just so you know, measured boiling point for CC(Cl)C(C)(C)Cl (stereo not given) came out at 129

Just so you know, measured boiling point for "Oc1cc(Cl)cc(Cl)c1" came out at 233

Just so you know, measured boiling point for "O=[N+]([O-])c1ccc(Cl)c(C(F)(F)F)c1" came out at 232

---

Each entry below lists one item and its recorded log10 Henry constant (atm·m³/mol) value.
// print number alone

Before answering, review these 4 worked examples.
In [3]: df
Out[3]:
                       compound  test_value
0                    Cc1ccccc1C       -2.29
1                   CCNc1ccccc1       -5.01
2                    CCc1cnccn1       -5.61
3  CNC(=O)N(C)c1nnc(C(C)(C)C)s1       -9.92

Next:
Just so you know, measured log10 Henry constant (atm·m³/mol) for CC(Cl)CCl (stereo not given) came out at -2.55

---

We use 2 as the dividing line for log10 Koc (L/kg): on or above the line is label 1, below is label 0.

>>> df
                        molecule  assigned_label
0       CNC(=O)N(C)c1nc2ccccc2s1         label 1
1   ClCC1CO1 (centres undefined)         label 0
2                    C=Cc1ccccc1         label 1
3  Nc1ccc(-c2ccc(N)c(Cl)c2)cc1Cl         label 1
4        Cc1cc(=O)[nH]c(=S)[nH]1         label 1

Ask: I'd appreciate it if you could say whether "CC1(C)CON(Cc2ccccc2Cl)C1=O" has log10 Koc (L/kg) at least equal to 2.
Result: label 1

Ask: I'd appreciate it if you could say whether "CC(Cl)(Cl)C(=O)[O][Na]" has log10 Koc (L/kg) at least equal to 2.
Result: label 0

Ask: I'd appreciate it if you could say whether "COP(=S)(OC)Oc1ccc([N+](=O)[O-])cc1" has log10 Koc (L/kg) at least equal to 2.
Result: label 1

Ask: I'd appreciate it if you could say whether "Clc1ccc(Cl)c(-c2cc(Cl)c(Cl)cc2Cl)c1" has log10 Koc (L/kg) at least equal to 2.
Result: label 1

Ask: I'd appreciate it if you could say whether "CCOC(=O)Cc1cccc2ccccc12" has log10 Koc (L/kg) at least equal to 2.
Result: label 1

Ask: I'd appreciate it if you could say whether CCOP(=S)(OCC)SCS(=O)C(C)(C)C (centres undefined) has log10 Koc (L/kg) at least equal to 2.
Result: label 1

Ask: I'd appreciate it if you could say whether "CCCN(CCOc1c(Cl)cc(Cl)cc1Cl)C(=O)n1ccnc1" has log10 Koc (L/kg) at least equal to 2.
Result: label 1

Ask: I'd appreciate it if you could say whether "CC(=O)Nc1ccc(F)cc1" has log10 Koc (L/kg) at least equal to 2.
Result: label 0

---

The following ranges of boiling point define the classes used here: low band: < 100 °C; middle band: ≥ 100 °C and < 200 °C; high band: ≥ 200 °C

# example entries with known answers
                               molecule  assigned_label
0        CCCCC(C)CCC (stereo not drawn)     middle band
1                             CCC(=O)Cl        low band
2                         CC[SiH](CC)CC     middle band
3  CC1CCCC(C)(C)C1=O (stereo not drawn)     middle band
4                         CC[C@H](C)CBr     middle band
5                       CCC(=O)C(C)(C)C     middle band

Ask: Looking at "C/C=C/C=C/C(=O)OC" , which class would you pick?
Result: middle band

Ask: Looking at "ClCBr" , which class would you pick?
Result: low band

Ask: Looking at "C1CCC(OC2CCCCC2)CC1" , which class would you pick?
Result: high band

Ask: Looking at "C=CCCCCCCCCCCCCC" , which class would you pick?
Result: high band

Ask: Looking at "CC1CCSCC1" , which class would you pick?
Result: middle band
